system: Caspase 3; test: Caspase 3 detection assay in SJSA1 cells; assay type: cell-based; conditions: 3 μM, SJSA1, 48 h, Caspase 3 activation over DMSO-treated cells
Bridge positions count the residues as written; N and C are the ends. Square brackets hold non-standard residues; d marks the D form. Peptide text beside a SMILES is read from it. Trp(6-Cl) = N[C@@H](Cc1c[nH]c2cc(Cl)ccc12)C(=O)O; R8 = C=CCCCCCC[C@@](C)(N)C(=O)O; S5 = C=CCCC[C@](C)(N)C(=O)O
Assay Readout: caspase 3 μM
Give bare numbers.

# Compound, caspase 3 μM
rows = [
    ("CC(=O)N[C@@H](CC(C)C)C(=O)N[C@H](C(=O)N[C@@H](Cc1ccccc1)C(=O)N[C@]1(C)CCCCCC/C=C/CCC[C@@](C)(C(=O)N[C@@H](CO)C(=O)N[C@@H](C)C(=O)N[C@@H](C)C(N)=O)NC(=O)[C@H](CC(C)C)NC(=O)[C@H](CCC(N)=O)NC(=O)[C@H](C)NC(=O)[C@H](Cc2c[nH]c3cc(Cl)ccc23)NC(=O)[C@H](Cc2ccc(O)cc2)NC(=O)[C@H](C)NC1=O)[C@@H](C)O [compound 99] (Ac-LTF[R8]AY[Trp(6-Cl)]AQL[S5]SAA-NH2; staple (E) 4-11)", 7),
    ("CC(=O)N[C@@H](CC(C)C)C(=O)N[C@H](C(=O)N[C@@H](Cc1ccccc1)C(=O)N[C@]1(C)CCCCCCC=CCCC[C@@](C)(C(=O)N[C@@H](C)C(=O)N[C@@H](C)C(=O)N[C@@H](Cc2ccccc2)C(=O)N[C@H](C)C(N)=O)NC(=O)[C@H](CC(C)C)NC(=O)[C@H](CCC(N)=O)NC(=O)[C@H](C)NC(=O)[C@H](Cc2c[nH]c3ccccc23)NC(=O)[C@H](Cc2ccc(O)cc2)NC(=O)[C@H](CCC(=O)O)NC1=O)[C@@H](C)O (single isomer, unassigned) [compound 218]", 2),
    ("CC(=O)N[C@@H](CC(C)C)C(=O)N[C@H](C(=O)N[C@@H](Cc1ccccc1)C(=O)N[C@]1(C)CCCCCCC=CCCC[C@@](C)(C(=O)N[C@@H](CO)C(=O)N[C@@H](C)C(=O)N[C@@H](C)C(N)=O)NC(=O)[C@H](CC(C)C)NC(=O)[C@H](CCC(N)=O)NC(=O)[C@H](C)NC(=O)[C@H](Cc2c[nH]c3ccccc23)NC(=O)[C@H](Cc2ccc(O)cc2)NC(=O)[C@H](C)NC1=O)[C@@H](C)O [compound 11] (Ac-LTF[R8]AYWAQL[S5]SAA-NH2; staple 4-11)", 5),
]

Lab book: caspase 3 μM of CC(=O)N[C@@H](C)C(=O)N[C@@H](CC(C)C)C(=O)N[C@H](C(=O)N[C@@H](Cc1ccccc1)C(=O)N[C@]1(C)CCCCCCC=CCCC[C@@](C)(C(=O)N[C@@H](CO)C(=O)N[C@@H](C)C(=O)N[C@@H](C)C(=O)N[C@@H](C)C(=O)N[C@H](C)C(N)=O)NC(=O)[C@H](CC2CCC2)NC(=O)[C@H](CCC(N)=O)NC(=O)[C@H](C)NC(=O)[C@H](Cc2c[nH]c3ccccc23)NC(=O)[C@H](Cc2ccc(O)cc2)NC(=O)[C@H](CCC(=O)O)NC1=O)[C@@H](C)O (single isomer, unassigned) noted as 11
